Reference for the values: paper PMC4453016

logD for assorted compounds
# assay: Distribution coefficient (logD), octanol/PBS
# experimental.parameters: pH 7.4
Give only the figure.

[
  {
    "compound": "CC(=O)N(O)CCCCCNC(=O)CCC(=O)N(O)CCCCCNC(=O)CCC(=O)N(O)CCCCCN [[^89Zr]DFO, desferrioxamine B, metal not drawn, reference compound]",
    "logD": -3
  }
]

*Q* What does the data say about its logD? Entry: CC(=O)NC1CCCN(O)C(=O)/C=C(/C)CCOC(=O)C(NC(C)=O)CCCN(O)C(=O)/C=C(/C)CCOC(=O)C(NC(C)=O)CCCN(O)C(=O)/C=C(/C)CCOC1=O (centres unmarked) [[^89Zr]TAFC, triacetylfusarinine C, metal not drawn]
*A* -2
